System: adductor magnus muscle arterioles
protocol-text: hindlimb ischemia model, arteriole density (α-SMA) in adductor magnus muscle
Type: in vivo, C57BL/6 wild-type mice
measurement-conditions: two weeks after surgery, sustained-release formulation (Bolus: bolus 29-mer)
parameter: Arteriole Density per mm^2 (α-SMA-positive arterioles) (per mm^2)

# polymer-sequence, data-value
rows = [
    ("EQRTESIIHRALYYDLIS [18-mer, control PEDF peptide without the SLGA residues, reference compound]", 4.0),
    ("SLGAEQRTESIIHRALYYDL [20-mer, synthetic peptide corresponding to residues 93-112 of human PEDF]", 10.7),
    ("SLGAEQRTESIIHRALYYDLISSP [24-mer, synthetic peptide corresponding to residues 93-116 of human PEDF]", 10.0),
    ("SLGAEQRTESIIHRALYYDLISSPDIHGT [29-mer, synthetic peptide corresponding to residues 93-121 of human PEDF]", 11.7),
]
